- study_system: human GCGR (Homo sapiens)
- Construct: expressed in transfected cells; host or cells: HEK293 (hGluc-1HEK), pcDNA3.1, G418 selection
- assay_name: Cellular functional assay, cAMP readout (glucagon-stimulated cAMP, LANCE TR-FRET)
- Format: cell-based
- protocol_conditions: HEK293 cells stably expressing full-length human GCGR; glucagon 100 pM; IC50 converted to Ki; read-out: Inhibition of cAMP Ki
This section presents molecules with their documented pKi values.
// pKi: -log10(molar conc.)

Past entries and their recorded results:
Cc1cc2nn(C(CC(C)C)c3ccc(C(=O)NCCC(=O)O)cc3)cc2cc1-c1ccc(C(F)(F)F)cc1Cl (stereo not shown) :: 7.28
CC(C)CC(c1ccc(C(=O)NCCC(=O)O)cc1)n1ncc2cc(-c3cc4cc(F)ccc4s3)ccc21 (stereo not shown) :: 6.59

Report pKi under test system human GCGR (Homo sapiens) for Cc1cc(Cl)ccc1-c1ccc2c(cnn2C(CCC2CCCCC2)c2ccc(C(=O)NCCC(=O)O)nc2)c1 (stereo not shown) .
6.44

====

- study_system: human GCGR (Homo sapiens)
- assay_name: Cellular functional assay, cAMP readout (glucagon-stimulated cAMP, LANCE TR-FRET)
- protocol_conditions: HEK293 cells stably expressing full-length human GCGR; glucagon 100 pM; IC50 converted to Ki; read-out: Inhibition of cAMP Ki
pKi: −log10 of the molar value.
Label MET when pKi is at or above 7; otherwise label NOT MET.

Look over these answered cases.
COc1c(-c2ccc(C(F)(F)F)cc2Cl)ccc2c1cnn2C(CC(C)C)c1ccc(C(=O)NCCC(=O)O)nc1 (centres unmarked) :: MET
CC(C)CC(c1ccc(C(=O)NCCC(=O)O)cc1)n1cc2c(Cl)c(-c3ccc(C(F)(F)F)cc3)ccc2n1 (centres unmarked) :: MET
CC(C)CC(c1ccc(C(=O)NCCC(=O)O)nc1)n1cc2cc(-c3ccc(C(C)(C)C)cc3)ccc2n1 (centres unmarked) :: NOT MET

Could you please find out whether O=C(O)CCNC(=O)c1ccc(C(CCC(F)(F)C(F)(F)F)n2ncc3cc(-c4ccc(C(F)(F)F)cc4)ccc32)cc1 (centres unmarked) has pKi that meets 7 or exceeds it?
NOT MET

====

- study_system: UniProt:P47871
- assay_name: Cellular functional assay, cAMP readout (glucagon-stimulated cAMP, LANCE TR-FRET)
- protocol_conditions: HEK293 cells stably expressing full-length human GCGR; glucagon 100 pM; IC50 converted to Ki; read-out: Inhibition of cAMP Ki
measured_attribute: pKi
// pKi: -log10(molar conc.)

CC(C)CC(c1ccc(C(=O)NCCC(=O)O)nc1)n1cc2cc(-c3cc4ccccc4s3)ccc2n1 (stereo not drawn) [compound 96] :: 7.04
Cc1cc(Cl)ccc1-c1ccc2nn(C(CC(C)(C)C)c3ccc(C(=O)NCCC(=O)O)nc3)cc2c1 (stereo not drawn) [compound 257] :: 7.59
O=C(O)CCNC(=O)c1ccc(C(CCC(F)(F)F)n2ncc3cc(-c4ccc(Cl)cc4Cl)ccc32)cc1 (stereo not drawn) [Compound #112] :: 6.39
CC(C)(C)CC(c1ccc(C(=O)NCCC(=O)O)nc1)n1ncc2cc(-c3ccc(C(F)(F)F)cc3)ccc21 (stereo not drawn) [compound 237] :: 6.80
CC(C)C[C@@H](c1ccc(C(=O)NCCC(=O)O)cc1)n1ncc2cc(-c3ccc(C(F)(F)F)cc3Cl)ccc21 [Compound #90] :: 7.07
O=C(O)CCNC(=O)c1ccc(C(CC2CCCCC2)n2ncc3cc(-c4ccc(C(F)(F)F)cc4)ccc32)cc1 (stereo not drawn) [compound 131] :: 6.51
Cc1cc(Cl)ccc1-c1ccc2nn(C(CC3CCCCC3)c3ccc(C(=O)NCCC(=O)O)cc3)cc2c1 (stereo not drawn) [compound 153] :: 7.38
Cc1cc(C(F)(F)F)ccc1-c1ccc2nn(C(CCC(F)(F)F)c3ccc(C(=O)NCCC(=O)O)cc3)cc2c1 (stereo not drawn) [Compound #50] :: 7.33
Cc1cc(Cl)ccc1-c1ccc2nn(C(CC(C)C)c3ccc(C(=O)NCCC(=O)O)cc3)cc2c1 (stereo not drawn) [Compound #168] :: 6.72
O=C(O)CCNC(=O)c1ccc(C(CCC(F)(F)F)n2cc3cc(-c4ccc(C(F)(F)F)cc4Cl)ccc3n2)cc1 (stereo not drawn) [Compound #16] :: 7.19

Respond only with pKi recorded for Cc1ccc2sc(-c3ccc4c(cnn4C(CC(C)C)c4ccc(C(=O)NCCC(=O)O)cc4)c3)cc2c1 (stereo not drawn) [compound 230]
6.55

Respond only with pKi recorded for CC(C)(C)CC(c1ccc(C(=O)NCCC(=O)O)cc1)n1cc2cc(-c3ccc(C(F)(F)F)cc3)ccc2n1 (stereo not drawn) [compound 61]
7.28

Respond only with pKi recorded for CC(C)CC(c1ccc(C(=O)NCCC(=O)O)nc1)n1ncc2cc(-c3ccc(Cl)cc3Cl)ccc21 (stereo not drawn) [Compound #113]
6.38

Respond only with pKi recorded for CC(C)CC(c1ccc(C(=O)NCCC(=O)O)cc1)n1ncc2cc(-c3cnc4ccccc4c3)ccc21 (stereo not drawn) [compound 46]
6.12

====

This section presents molecules with their documented pKi values.
- study_system: UniProt:P47871
- assay_name: Cellular functional assay, cAMP readout (glucagon-stimulated cAMP, LANCE TR-FRET)
- protocol_conditions: HEK293 cells stably expressing full-length human GCGR; glucagon 100 pM; IC50 converted to Ki; read-out: Inhibition of cAMP Ki
// pKi: -log10(molar conc.)

Cc1ccc(-c2ccc3nn(C(CC(C)C)c4ccc(C(=O)NCCC(=O)O)cc4)cc3c2C)c(Cl)c1 (centres unmarked) [Compound #148] :: 7.24

Respond only with pKi recorded for O=C(O)CCNC(=O)c1ccc(C(CCC(F)(F)F)n2ncc3cc(-c4ccc(OC(F)(F)F)cc4)ccc32)cc1 (centres unmarked) [Compound #76]
6.15

Respond only with pKi recorded for Cc1cc2c(cnn2C(CC(C)C)c2ccc(C(=O)NCCC(=O)O)nc2)cc1-c1ccc(C(F)(F)F)cc1Cl (centres unmarked) [Compound #259]
7.43

Respond only with pKi recorded for COc1c(-c2ccc(C(F)(F)F)cc2Cl)ccc2c1cnn2C(CC(C)C)c1ccc(C(=O)NCCC(=O)O)cc1 (centres unmarked) [Compound #103]
7.00

Respond only with pKi recorded for Cc1cc2c(cnn2C(CC(C)C)c2ccc(C(=O)NCCC(=O)O)cc2)cc1-c1ccc(C(F)(F)F)cc1Cl (centres unmarked) [Compound #94]
7.59

Respond only with pKi recorded for Cc1cc(C(F)(F)F)ccc1-c1cc2cnn(C(CC(C)C)c3ccc(C(=O)NCCC(=O)O)cc3)c2cc1C (centres unmarked) [Compound #93]
7.44

Respond only with pKi recorded for Cc1ccc2cc(-c3ccc4c(cnn4C(CC(C)C)c4ccc(C(=O)NCCC(=O)O)cc4)c3)sc2c1 (centres unmarked) [compound 62]
6.64

Respond only with pKi recorded for CCCCCC(c1ccc(C(=O)NCCC(=O)O)cc1)n1ncc2cc(-c3ccc(C(F)(F)F)cc3)ccc21 (centres unmarked) [compound 89]
6.89

====

- study_system: human GCGR (Homo sapiens)
- assay_name: Cellular functional assay, cAMP readout (glucagon-stimulated cAMP, LANCE TR-FRET)
- protocol_conditions: HEK293 cells stably expressing full-length human GCGR; glucagon 100 pM; IC50 converted to Ki; read-out: Inhibition of cAMP Ki
measured_attribute: Ki (nM)
Could you give me the number in nM? Just the number is fine.

Past entries and their recorded results:
Cc1cc(Cl)ccc1-c1ccc2nn(C(CC3CCCCC3)c3ccc(C(=O)NCCC(=O)O)nc3)cc2c1 (stereo not shown) :: 42
O=C(O)CCNC(=O)c1ccc(C(CCC2CCC2)n2ncc3cc(-c4ccc(C(F)(F)F)cc4)ccc32)cc1 (stereo not shown) :: 260
Cc1cc(C(F)(F)F)ccc1-c1cc2cn([C@@H](CC(C)C)c3ccc(C(=O)NCCC(=O)O)cc3)nc2cc1C :: 25
CC(C)CC(c1ccc(C(=O)NCCC(=O)O)cc1)n1cc2cc(-c3ccc4cnn(C)c4c3)ccc2n1 (stereo not shown) :: 340

Respond only with Ki recorded for Cc1cc(Cl)ccc1-c1cc2cn(C(CC(C)C)c3ccc(C(=O)NCCC(=O)O)nc3)nc2cc1Cl (stereo not shown)
125

Respond only with Ki recorded for CC(C)CC(c1ccc(C(=O)NCCC(=O)O)cc1)n1ncc2cc(-c3cc4ccccc4o3)ccc21 (stereo not shown)
135

Respond only with Ki recorded for CCCCCC(c1ccc(C(=O)NCCC(=O)O)cc1)n1ncc2cc(-c3ccc(C(C)(C)C)cc3)ccc21 (stereo not shown)
255

Respond only with Ki recorded for CC(C)CC(c1ccc(C(=O)NCCC(=O)O)cc1)n1cc2cc(-c3ccsc3)ccc2n1 (stereo not shown)
750

====

- study_system: human GCGR (Homo sapiens, UniProt P47871)
- Sequence (P47871 26-477): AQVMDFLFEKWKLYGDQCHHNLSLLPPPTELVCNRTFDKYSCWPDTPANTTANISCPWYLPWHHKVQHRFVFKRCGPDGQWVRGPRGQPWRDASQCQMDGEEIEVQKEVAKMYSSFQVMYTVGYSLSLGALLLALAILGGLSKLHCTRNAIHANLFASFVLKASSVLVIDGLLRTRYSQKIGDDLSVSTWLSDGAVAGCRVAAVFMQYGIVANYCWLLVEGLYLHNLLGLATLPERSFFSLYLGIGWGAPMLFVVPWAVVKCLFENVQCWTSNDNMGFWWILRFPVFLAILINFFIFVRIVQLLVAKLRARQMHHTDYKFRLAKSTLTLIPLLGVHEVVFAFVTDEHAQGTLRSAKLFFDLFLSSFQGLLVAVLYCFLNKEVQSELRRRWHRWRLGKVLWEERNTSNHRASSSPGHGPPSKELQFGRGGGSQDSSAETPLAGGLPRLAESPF
- assay_name: Cellular functional assay, cAMP readout (glucagon-stimulated cAMP, LANCE TR-FRET)
- protocol_conditions: HEK293 cells stably expressing full-length human GCGR; glucagon 100 pM; IC50 converted to Ki; read-out: Inhibition of cAMP Ki
measured_attribute: pKi
// pKi: -log10(molar conc.)

Past entries and their recorded results:
COc1c(-c2ccc(C(F)(F)F)cc2C)ccc2nn(C(CC(C)C)c3ccc(C(=O)NCCC(=O)O)nc3)cc12 (stereo not shown) :: 7.92
CC(C)CC(c1ccc(C(=O)NCCC(=O)O)nc1)n1ncc2cc(-c3ccc(OC(F)(F)F)cc3)ccc21 (stereo not shown) :: 6.19
CC(C)CC(c1ccc(C(=O)NCCC(=O)O)cc1)n1ncc2cc(-c3cc4ccc(F)cc4s3)ccc21 (stereo not shown) :: 6.55
O=C(O)CCNC(=O)c1ccc(C(CCC(F)(F)F)n2ncc3cc(-c4ccc(C(F)(F)F)cc4Cl)ccc32)cc1 (stereo not shown) :: 6.57
CC(C)CC(c1ccc(C(=O)NCCC(=O)O)cc1)n1cc2cc(-c3cc4cc(F)ccc4s3)ccc2n1 (stereo not shown) :: 7.06

Respond only with pKi recorded for Cc1ccc(-c2ccc3nn(C(CC(C)C)c4ccc(C(=O)NCCC(=O)O)cc4)cc3c2C)c(C)c1 (stereo not shown)
7.62

Respond only with pKi recorded for COc1ccc2sc(-c3ccc4c(cnn4C(CC(C)C)c4ccc(C(=O)NCCC(=O)O)cc4)c3)cc2c1 (stereo not shown)
6.64

Respond only with pKi recorded for O=C(O)CCNC(=O)c1ccc(C(CCC(F)(F)F)n2ncc3cc(-c4cc5ccccc5o4)ccc32)cc1 (stereo not shown)
6.76

Respond only with pKi recorded for CC(C)(F)CC(c1ccc(C(=O)NCCC(=O)O)cc1)n1cc2cc(-c3ccc(C(F)(F)F)cc3)ccc2n1 (stereo not shown)
6.70

Respond only with pKi recorded for Cc1cc(C(F)(F)F)ccc1-c1cc2cnn(C(CC(C)C)c3ccc(C(=O)NCCC(=O)O)nc3)c2cc1C (stereo not shown)
7.49

Respond only with pKi recorded for O=C(O)CCNC(=O)c1ccc(C(CCc2ccc(Cl)cc2)n2cc3cc(-c4ccc(C(F)(F)F)cc4)ccc3n2)cc1 (stereo not shown)
7.10

Respond only with pKi recorded for CC(C)CCC(c1ccc(C(=O)NCCC(=O)O)cc1)n1cc2cc(-c3ccc(C(F)(F)F)cc3)ccc2n1 (stereo not shown)
6.98

Respond only with pKi recorded for CCOc1c(-c2ccc(C(F)(F)F)cc2Cl)ccc2c1cnn2C(CC(C)C)c1ccc(C(=O)NCCC(=O)O)nc1 (stereo not shown)
7.62
